Assay: Confluent HPEK cell viability with/without 5-FU
Type: cell-based, human
Settings: human, confluent HPEK cells; 10 μM of 5-FU; read-out: viability compared to a control system without 5-FU
measured.attribute: viability at 120 h, 10 µM (%)
Entry rule: numbers only, all in %.

Input: Output viability at 120 h, 10 µM of O=c1[nH]cc(F)c(=O)[nH]1 [5-FU, 5-fluorouracil, reference compound]
Output: 65.1

* * *

Test: Proliferating HPEK cell viability with/without 5-FU
Assay type: cell-based, human
Settings: human, proliferating HPEK cells; 10 μM of 5-FU; read-out: viability compared to a control system without 5-FU
measured.attribute: viability at 120 h, 10 µM
A complete answer gives the number and then names the unit.

Input: Provide only the value of recorded viability at 120 h, 10 µM for O=c1[nH]cc(F)c(=O)[nH]1 [5-FU, 5-fluorouracil, reference compound]
Output: 65.1%

Cited source: patent US20200046703A1
